system: U2OS; experiment: Multiplex assay against U2OS; assay type: toxicity, cell-based; settings: human, 24 h, 1 µM, compound concentration 1 uM, replicate 2
Readout label: Population Healthy Nuclei (%)
Answers are plain numbers, in %.

// below: answered molecules
Cl.Cl.OCCOCCN1CCN(C(c2ccccc2)c2ccc(Cl)cc2)CC1 (centres undefined) [HYDROXYZINE HYDROCHLORIDE]    77
O=C(Nc1cc(-c2ccccc2)nn1-c1ccccc1F)c1ccc([N+](=O)[O-])cc1    76
Nc1nc(-c2ccco2)c2cnn(Cc3ccccc3F)c2n1    71
Cc1cc(NC(=O)NCCN2CCC(O)(Cc3ccccc3)CC2)c2ccccc2n1    74

For each entry beneath this line, provide reported Population Healthy Nuclei (%).
1. O=c1ccc2ccc(OCCCCN3CCN(c4cccc5sccc45)CC3)cc2[nH]1
2. N[C@](CC1c2ccccc2Oc2ccccc21)(C(=O)O)[C@H]1C[C@@H]1C(=O)O
3. Cc1cc(O)c(-c2ccc([C@@H](C)CN(C)C)cc2)c2c1[nH]c(=O)c1sccc12
4. CC(C)(C)c1ccc(CSc2cnn(C(C)(C)C)c(=O)c2Cl)cc1

A.
67
77
41
75

Here are 7 molecules. What values of Population Healthy Nuclei (%) were reported for them?
1. Cn1cc(C(=O)OCC2CCN(CCNS(C)(=O)=O)CC2)c2ccccc21
2. CN(C)C(=O)Cn1cc(-c2ccc(-c3nnc4ccccn34)cc2)cn1
3. CN1CCN(c2ccc(Nc3c4ccccc4nc4ccccc34)cc2)CC1.Cl.Cl.O
4. COCCn1c(C)c(C)s/c1=N\C(=O)C1C(C)(C)C1(C)C
5. Nc1nc(CC(=O)Nc2ccc(CCNC[C@H](O)c3ccccc3)cc2)cs1
6. Cc1ccc(OCC(O)C(C)NC(C)C)c2c1CCC2.Cl (centres undefined)
7. Cc1cc(=O)n(C)c2cc(N3C(=O)CC[C@H](NS(=O)(=O)CC(C)C)[C@H]3c3ccc(Cl)cc3)ccc12

A.
78
74
60
77
79
73
69

Give measured Population Healthy Nuclei (%) for every item shown.
1. O=C(NCCNCC(O)COc1ccc(O)cc1)N1CCOCC1.O=C(NCCNCC(O)COc1ccc(O)cc1)N1CCOCC1.O=C(O)/C=C/C(=O)O (centres undefined) [XAMOTEROL FUMARATE]
2. CCC(=O)OCC(=O)[C@@]1(OC(=O)CC)[C@@H](C)C[C@H]2[C@@H]3CCC4=CC(=O)C=C[C@]4(C)[C@@]3(Cl)[C@@H](O)C[C@@]21C [BECLOMETHASONE DIPROPIONATE]
3. CN1CCN2c3ccccc3Cc3ccccc3C2C1.Cl (centres undefined) [MIANSERIN HYDROCHLORIDE]
4. S=C(NCCCc1c[nH]cn1)NCCCN(Cc1ccc(Cl)c(Cl)c1)c1ccc(Br)cn1
5. COc1cc(C(=O)N2CC[C@@H](O)[C@@H](N)C2)cc2nc(-c3cc4ccccc4n3CC3CC3)n(C)c12.Cl
6. Cc1sc2c(c1C)C(c1ccc(Cl)cc1)=N[C@H](CC(=O)OC(C)(C)C)c1nnc(C)n1-2
7. COC(c1ccccc1)(c1ccccc1)[C@H](Oc1nc(C)cc(C)n1)C(=O)O
8. CC(C)(O)C(=O)N1CCN(c2ccc(C(F)(F)F)c(C3=C(c4c[nH]c5ccccc45)C(=O)NC3=O)c2)CC1

A.
69
71
70
65
69
70
66
67

Please give Population Healthy Nuclei (%), item by item, for the list that follows.
1. OCCCNc1cc(-c2ccnc(Nc3cccc(Cl)c3)n2)ccn1
2. O=c1nc2[nH]c3ccccc3nc-2c(=O)[nH]1
3. O=C(O)CCC/C=C\CC1C(O)CC(O)C1/C=C/C(O)COc1cccc(Cl)c1 (centres undefined)
4. CSc1nc(NC2CCCC2)c([N+](=O)[O-])c(NC2CCCC2)n1
5. COc1cc(Nc2ncc3c(n2)-c2ccc(Cl)cc2C(c2c(F)cccc2OC)=NC3)ccc1C(=O)O
6. CN(C)C/C=C/C(=O)Nc1ccc(C(=O)N2CCCC(Nc3ncc(Cl)c(-c4c[nH]c5ccccc45)n3)C2)cc1 (centres undefined)
7. CCCCCCNC(=O)Nc1ccc(S(=O)(=O)Nc2ccc(CCNC[C@H](O)COc3ccc(O)cc3)cc2)cc1

A.
1: 33; 2: 74; 3: 77; 4: 68; 5: 63; 6: 67; 7: 67
